Tested on: cornea
Test: Predicted corneal permeability from MDCK permeability by statistical model
Conditions: Corneal Permeability=5.41(MDCK Permeability)−0.01(MDCK Permeability)^2; in nm/s
Mark class 1 only when Predicted Corneal Permeability stays strictly below 200. Values equal to the cut-off are class 0.

// query Is 200 strictly greater than the compound's reported Predicted Corneal Permeability? compound: Nc1cc(Cl)c(N=C2NCCN2)c(Cl)c1 [Apraclonidine]
// result class 1

// query Is 200 strictly greater than the compound's reported Predicted Corneal Permeability? compound: CC[C@@H]1C(=O)OC[C@@H]1Cc1cncn1C [Pilocarpine]
// result class 1

// query Is 200 strictly greater than the compound's reported Predicted Corneal Permeability? compound: O=C1CC2(CCCC2)CC(=O)N1CCCCN1CCN(c2ncccn2)CC1 [Buspirone]
// result class 0

// query Is 200 strictly greater than the compound's reported Predicted Corneal Permeability? compound: O=C1OC2(c3ccc(O)cc3Oc3cc(O)ccc32)c2ccccc21 [Fluorescein]
// result class 1

// query Is 200 strictly greater than the compound's reported Predicted Corneal Permeability? compound: CC(C)NCC(O)COc1ccc(CCOCC2CC2)cc1 (stereo not shown) [Betaxolol]
// result class 0

// query Is 200 strictly greater than the compound's reported Predicted Corneal Permeability? compound: CC(C)(C)NC[C@H](O)COc1nsnc1N1CCOCC1 [Timolol]
// result class 1

// query Is 200 strictly greater than the compound's reported Predicted Corneal Permeability? compound: NC(=O)Cc1cccc(C(=O)c2ccccc2)c1N [Nepafenac]
// result class 0
